Overview of recorded melting point for various compounds

{"columns": ["Compound", "melting point"],
 "data": [
  ["COc1ccc2c(n1)C1(CO2)C(=O)N(Cc2ccc(C(F)(F)F)o2)c2ccc(F)cc21 (centres unmarked) [Synthetic Example 10]", "158 to 160 °C"],
  ["O=C1N(Cc2ccc(C(F)(F)F)o2)c2ccccc2C12COc1cc3c(nc12)OCO3 (centres unmarked) [Synthetic Example 8]", "175 to 177 °C"],
  ["COc1ccc2c(n1)C1(CO2)C(=O)N(CC2CCN(C)CC2)c2ccccc21 (centres unmarked)", "58 to 62 °C"],
  ["COc1cc2c(cn1)OCC21C(=O)N(CC2CCOCC2)c2ccccc21 (centres unmarked) [Synthetic Example 26]", "84 to 85 °C"],
  ["COc1ccc2c(n1)C1(CO2)C(=O)N(Cc2ncc(Cl)n2C)c2ccccc21 (centres unmarked)", "169 to 171 °C"],
  ["COc1ccc2c(n1)C1(CO2)C(=O)Nc2ccccc21 (centres unmarked)", "199 to 200 °C"],
  ["COc1cc2c(cn1)OCC21C(=O)Nc2ccccc21 (centres unmarked) [Synthetic Example 25]", "231 to 232 °C"],
  ["O=C1N(Cc2ccc(C(F)(F)F)o2)c2ccccc2C12COc1ccc(=O)[nH]c12 (centres unmarked) [Synthetic Example 7]", "175 to 177 °C"]
]}

Reference source for all entries: patent US20110294842A9
